- System: Streptococcus pneumoniae
- METHOD: Antibacterial activity against Streptococcus pneumoniae PU09 by microbroth dilution method
- Type: functional
PARAMETER: MIC (µg/mL)

O=C(O)c1cn(C2CC2)c2cc(N3CCNCC3)c(F)cc2c1=O | 2
CC[C@H]1OC(=O)[C@H](C)C(=O)[C@H](C)[C@@H](O[C@@H]2O[C@H](C)C[C@H](N(C)C)[C@H]2O)[C@](C)(OC)C[C@@H](C)C(=O)[C@H](C)[C@H]2N(CCCCc3ccc4c(=O)c(C(N)=O)cn(C5CC5)c4c3)C(=O)O[C@]12C | 0.25
CC[C@H]1OC(=O)[C@H](C)C(=O)[C@H](C)[C@@H](O[C@@H]2O[C@H](C)C[C@H](N(C)C)[C@H]2O)[C@](C)(OC)C[C@@H](C)C(=O)[C@H](C)[C@H]2N(CCCN3CCN(c4cc5c(cc4F)c(=O)c(C(=O)O)cn5C4CC4)CC3)C(=O)O[C@]12C | 1

====

- Tested on: Staphylococcus aureus
- METHOD: Antibacterial activity against Staphylococcus aureus PU32 by microbroth dilution method
- Assay type: functional
# MIC listing for each entry below
PARAMETER: MIC

CC[C@H]1OC(=O)[C@H](C)C(=O)[C@H](C)[C@@H](O[C@@H]2O[C@H](C)C[C@H](N(C)C)[C@H]2O)[C@](C)(OC)C[C@@H](C)C(=O)[C@H](C)[C@H]2N(CCN3CCN(c4cc5c(cc4F)c(=O)c(C(=O)O)cn5C4CC4)CC3)C(=O)O[C@]12C | 4 µg/mL
CC[C@H]1OC(=O)[C@H](C)C(=O)[C@H](C)[C@@H](O[C@@H]2O[C@H](C)C[C@H](N(C)C)[C@H]2O)[C@](C)(OC)C[C@@H](C)C(=O)[C@H](C)[C@H]2N(CCC#Cc3ccc4c(=O)c(C(N)=O)cn(C5CC5)c4c3)C(=O)O[C@]12C | 1 µg/mL
CC[C@H]1OC(=O)[C@H](C)C(=O)[C@H](C)[C@@H](O[C@@H]2O[C@H](C)C[C@H](N(C)C)[C@H]2O)[C@](C)(OC)C[C@@H](C)C(=O)[C@H](C)[C@H]2N(CCC#Cc3ccc4c(=O)c(C(=O)O)cn(C5CC5)c4c3)C(=O)O[C@]12C | 0.25 µg/mL
CC[C@H]1OC(=O)[C@H](C)C(=O)[C@H](C)[C@@H](O[C@@H]2O[C@H](C)C[C@H](N(C)C)[C@H]2O)[C@](C)(OC)C[C@@H](C)C(=O)[C@H](C)[C@H]2N(CCC#Cc3ccc4c(c3)c(=O)c(C(N)=O)cn4C3CC3)C(=O)O[C@]12C | 1 µg/mL
CC[C@H]1OC(=O)[C@H](C)C(=O)[C@H](C)[C@@H](O[C@@H]2O[C@H](C)C[C@H](N(C)C)[C@H]2O)[C@](C)(OC)C[C@@H](C)C(=O)[C@H](C)[C@H]2N(CCCN3CCN(c4cc5c(cc4F)c(=O)c(C(=O)O)cn5C4CC4)CC3)C(=O)O[C@]12C | 1 µg/mL
CC[C@H]1OC(=O)[C@H](C)C(=O)[C@H](C)[C@@H](O[C@@H]2O[C@H](C)C[C@H](N(C)C)[C@H]2O)[C@](C)(OC)C[C@@H](C)C(=O)[C@H](C)[C@H]2N(CCCCCC#Cc3ccc4c(c3)c(=O)c(C(N)=O)cn4C3CC3)C(=O)O[C@]12C | 8 µg/mL
CC[C@H]1OC(=O)[C@H](C)C(=O)[C@H](C)[C@@H](O[C@@H]2O[C@H](C)C[C@H](N(C)C)[C@H]2O)[C@](C)(OC)C[C@@H](C)C(=O)[C@H](C)[C@H]2N(CCCCCC#Cc3ccc4c(c3)c(=O)c(C(=O)O)cn4C3CC3)C(=O)O[C@]12C | 8 µg/mL
CC[C@H]1OC(=O)[C@H](C)C(=O)[C@H](C)[C@@H](O[C@@H]2O[C@H](C)C[C@H](N(C)C)[C@H]2O)[C@](C)(OC)C[C@@H](C)C(=O)[C@H](C)[C@H]2N(CCCCN3CCN(c4cc5c(cc4F)c(=O)c(C(=O)O)cn5C4CC4)CC3)C(=O)O[C@]12C | 2 µg/mL
CC[C@H]1OC(=O)[C@H](C)C(=O)[C@H](C)[C@@H](O[C@@H]2O[C@H](C)C[C@H](N(C)C)[C@H]2O)[C@](C)(OC)C[C@@H](C)C(=O)[C@H](C)[C@H]2N(CCCCc3ccc4c(=O)c(C(N)=O)cn(C5CC5)c4c3)C(=O)O[C@]12C | 1 µg/mL

Values were extracted from ChEMBL document CHEMBL5120845.
